Each recorded value in this set is attributed to patent US10000498B2.

- Tested on: R2/VC cells (vector control R2 CHO)
- assay-protocol: Growth inhibition of vector control R2 CHO cells (Cell TiterBlue, 96 h)
- Format: cell-based, Chinese hamster
- test-settings: Cricetulus griseus, folate-free RPMI1640/10% dialyzed FBS, 25 nM leucovorin, read-out: Growth inhibition 50% inhibitory concentration, R2/VC
assay-readout: IC50 (nM)
Use nM as the unit, but write only the number.

Fill in: IC50 of Cc1nc2ccc(CN(C)c3ccc(C(=O)N[C@@H](CCC(=O)O)C(=O)O)s3)cc2c(=O)[nH]1 [Raltitrexed, raltitrexed, reference compound] is ___
604

###

- Test system: PC43-10 cells (hRFC-expressing Chinese hamster ovary)
- assay-protocol: Growth inhibition of hRFC-expressing PC43-10 CHO cells
- Type: cell-based
- test-settings: Cricetulus griseus, PC43-10; RPMI1640/10% dialyzed fetal bovine serum; mean of 2-3 experiments; read-out: Growth inhibition (IC50, nM) hRFC PC43-10
assay-readout: IC50

Suppose we examine the compound `Nc1nc2[nH]c(CCCCCc3ccc(C(=O)N[C@@H](CCC(=O)O)C(=O)O)s3)cc2c(=O)[nH]1` ; what IC50 value has been reported?
> 1000 nM

###

- Test system: R2 CHO cells (hRFC- and FR-null)
- assay-protocol: Growth inhibition of hRFC- and FR-null R2 CHO cells
- Assay type: cell-based, Chinese hamster
- test-settings: Cricetulus griseus, RPMI1640/10% dialyzed fetal bovine serum, mean of 2-3 experiments
assay-readout: IC50

Lab note: need IC50 for Nc1nc2[nH]c(CCCCCc3ccc(C(=O)N[C@@H](CCC(=O)O)C(=O)O)s3)cc2c(=O)[nH]1 [AAG154360] on R2 CHO cells (hRFC- and FR-null), anyone have it?
> 1000 nM

###

- Test system: PC43-10 cells (hRFC-expressing Chinese hamster ovary)
- assay-protocol: Growth inhibition of hRFC-expressing PC43-10 CHO cells
- Format: cell-based
- test-settings: Cricetulus griseus, PC43-10, read-out: Growth inhibition (IC50, nM) hRFC PC43-10
assay-readout: IC50

Lab note: need IC50 with PC43-10 cells (hRFC-expressing Chinese hamster ovary) for entry Nc1nc2[nH]c(CCCCc3ccc(C(=O)N[C@@H](CCC(=O)O)C(=O)O)s3)cc2c(=O)[nH]1 [AAG154353] , please look it up.
> 1000 nM
